- Tested on: K-562 leukemia
- Assay method text: NCI-60 one-dose screen, 48 h (100 = growth as untreated, 0 = no growth, -100 = all killed)
- Assay context: 10 µM unless noted
- Experimental: Cells are grown in 96 well plates and exposed to the test compound for 48 hours. Compounds are tested at a single concentration, which is 10^-5 M for most compounds. The reported endpoint is percent growth (GI% or GIPRCNT), where numbers from 0 - 100% represent growth inhibition, and numbers from -100% - 0 represent cell death. For example, a value of 40 represents 60% growth inhibition. A value of 0 means no net growth occurred over the course of the experiment. […]
The panel holds about 83,000 compounds, 20% with a hit somewhere; the sample as a whole holds those more often.
The threshold is 30%. Values of growth beneath it are tagged condition met; values meeting or exceeding it are tagged condition not met.

Compound | Class label
CC1(/C=C/c2ccc(-c3ccccc3)cc2)CCn2cnc3ncnc(c32)N1O (centres undefined) | condition met
Nc1cc(-c2ccc(Cl)cc2)nn1-c1nnc(/C=C/c2ccco2)c(=O)[nH]1 | condition not met
COc1ccc(Nc2ncc(I)c(NCCCNC(=O)C3CCC3)n2)cc1 | condition met
Cc1ccc2nc(-c3ccc(C(=O)N/N=C/c4ccc([N+](=O)[O-])cc4)cc3)[nH]c2c1 | condition not met
C1CCC(N2CN3c4nonc4N4CN(C5CCCCC5)CN5c6nonc6N(C2)C3C45)CC1 (centres undefined) | condition not met
C=CN(C(=O)N1CCN(c2cc3c(cc2F)c(=O)c(C(=O)O)cn3C2CC2)CC1)c1nc(-c2ccccc2)cs1 | condition not met
N#CC1=C(N)Oc2c(sc3c(F)cccc23)C1c1ccc([N+](=O)[O-])cc1 (centres undefined) | condition met
O=S(=O)(NCCNc1nccc(-c2c(-c3ccc(F)c(O)c3)nc3sccn23)n1)c1ccc(Cl)cc1 | condition met
CCOC(=O)c1c(C)nc2ccccc2c1/C=C/c1ccc(F)cc1 | condition not met
